- targetUnderTest: T1, human CD71 extracellular domain (CD71-ECD) (human, UniProt P02786 89-760)
- T1 construct: also called hCD71; human CD71-ECD
- T1 sequence (P02786 89-760): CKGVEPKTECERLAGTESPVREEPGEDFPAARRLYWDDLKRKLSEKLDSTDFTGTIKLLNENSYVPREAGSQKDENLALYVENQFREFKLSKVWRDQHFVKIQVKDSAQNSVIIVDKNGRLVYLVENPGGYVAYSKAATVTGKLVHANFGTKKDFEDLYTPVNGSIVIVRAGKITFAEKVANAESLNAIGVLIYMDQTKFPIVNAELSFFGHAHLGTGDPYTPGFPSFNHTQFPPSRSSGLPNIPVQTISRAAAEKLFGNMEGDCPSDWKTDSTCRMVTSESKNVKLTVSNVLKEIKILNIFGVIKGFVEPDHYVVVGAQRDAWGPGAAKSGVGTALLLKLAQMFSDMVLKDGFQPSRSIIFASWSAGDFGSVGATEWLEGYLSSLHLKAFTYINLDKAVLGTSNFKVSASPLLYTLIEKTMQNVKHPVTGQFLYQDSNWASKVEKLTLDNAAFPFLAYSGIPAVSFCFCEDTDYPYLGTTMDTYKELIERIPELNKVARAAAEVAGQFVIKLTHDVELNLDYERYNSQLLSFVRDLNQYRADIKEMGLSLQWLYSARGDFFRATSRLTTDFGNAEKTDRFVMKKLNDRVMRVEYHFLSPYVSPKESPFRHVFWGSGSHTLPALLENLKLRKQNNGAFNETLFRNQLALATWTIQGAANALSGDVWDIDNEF
- assayProtocol: primary ELISA; also: test concentration or dose not given here
assayReadout: RLU (RLU)

1) CD71-binding FN3 domain SEQ ID NO: 278 (designed binder) MSLPAPKNLVVSRVTEDSARLSWTAPDAAFDSFEIGYFENLYLGEAIVLTVPGSERSHDLTGLKPGTEYWVQIGGVKGGNWSAPLSAIFTT :: 3.46e+06
2) CD71-binding FN3 domain SEQ ID NO: 237 (designed binder) MSLPAPKNLVVSRVTEDSARLSWTAPDAAFDSFEIAYFERTWFGEAIVLTVPGSERSYDLTGLKPGTEYWVQIGGVKGGDWSKPLSAIFTT :: 3.98e+06
3) CD71-binding FN3 domain SEQ ID NO: 293 (designed binder) MSLPAPKNLVVSRVTEDSARLSWTAPDAAFDSFFIGYLEPQPPGEAIDLYVPGSERSYDLTGLKPGTEYNVTIQGVKGGFPSHPLVATFTT :: 6.23e+06
4) CD71-binding FN3 domain SEQ ID NO: 236 (designed binder) MSLPAPKNLVVSRVTEDSARLSWTEPDAAFDSFEIGYFENLYLGEAIVLTVPGSERSYDLTGLKPGTEYWVQIGGVKGGNWSAPLSAIFTT :: 3.29e+06
5) CD71-binding FN3 domain SEQ ID NO: 300 (designed binder) MSLPAPKNLVVSRVTEDSARLSWTAPDAAFDSFEIGYFEATPNGEAIVLTVPGSERSYDLTGLKPGTEYKVFIGGVKGGRWSKPLSAIFTT :: 3.88e+06

1: CD71-binding FN3 domain SEQ ID NO: 326 (designed binder) MSLPAPKNLVVSRVTEDSARLSWTAPDAAFDSFEIGYWENAYKGEAIVLTVPGSERSYDLTGLKPGTEYWVQIGGVKGGVWSTPLSAIFTT
2: CD71-binding FN3 domain SEQ ID NO: 255 (designed binder) MSLPAPKNLVVSRVTEDSARLSWTTPDAAFDSFEIAYFEIAWLGEAIVLTVPGSERSYDLTGLKPGTEYWVQIGGVKGGAYSTPLSAIFTT
I'm curious, which of these has a smaller RLU number: 1 or 2 ? Answer by stating the label of the chosen item.
1

I: CD71-binding FN3 domain SEQ ID NO: 327 (designed binder) MSLPAPKNLVVSRVTEDSARLSWTAPDAAFDSFEIGYWENAYKGEAIVLTVPGSERSYDLTGLKPGTEYWVQIGGVKGGNWSAPLSAIFTT
II: CD71-binding FN3 domain SEQ ID NO: 264 (designed binder) MSLPAPKNLVVSRVTEDSARLSWTAPDAAFDSFFIGYLEPQPPGEAIALYVPGSERSYDLTGLKPGTEYNVTIQGVKGGFPSEPLVVHFTT
I'm curious, which of these has a smaller RLU number: I or II ? Answer by stating the label of the chosen item.
I
(I: 2.66e+06 RLU, II: 5.77e+06 RLU)

These entries and their values trace back to patent US20260151494A1.
